# tested.target: T1, recombinant GPRC5D antigen (Human GPRC5D protein-Flag-His tag (51.8KD) ACRO Cat: GPD-H52D3) (human, UniProt Q9NZD1 1-345, limits assumed)
# T1 construct: Bought protein; also called CPRG5D; not shown: Flag-His tag
# T1 sequence (Q9NZD1 whole entry): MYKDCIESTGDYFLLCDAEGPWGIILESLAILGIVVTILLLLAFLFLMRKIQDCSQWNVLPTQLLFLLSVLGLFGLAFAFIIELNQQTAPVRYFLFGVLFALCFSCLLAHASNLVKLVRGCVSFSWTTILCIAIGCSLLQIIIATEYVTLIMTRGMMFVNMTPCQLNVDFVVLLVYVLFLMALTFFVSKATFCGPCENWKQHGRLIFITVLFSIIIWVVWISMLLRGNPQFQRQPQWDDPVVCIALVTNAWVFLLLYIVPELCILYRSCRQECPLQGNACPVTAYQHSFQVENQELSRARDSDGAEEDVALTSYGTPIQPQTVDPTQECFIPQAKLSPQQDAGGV
# experiment.notes: BLI (Octet R8), recombinant GPRC5D antigen
# Text: The recombinant GPRC5D antigen (Human GPRC5D protein-Flag-His tag (51.8KD) ACRO Cat: GPD-H52D3) was immobilized on a chip and detected by Octet® R8 biomolecular interaction analysis system.
A collection of binders and their measured koff
readout.label: koff (s⁻¹)

binder	readout.label	units.of.measure	result
humanized antibody 22Mono5UQY (antibody, human IgG1, V domains shown, also called 22MonoSUQY) VH: QVQLQESGPGLVKPSETLSLTCTASGYPFTNYWMHWVRQPPGKGLEWIGEINPSNGRTNYNEKFKSRATLSLDKSKNQASLNLDSVSAADTAIYYCARGFAYWGKGSTVTVSS VL: AIQLTQSPSSLSASVGDRVTITCSASSSVSFMHWYQQKPGKAPKRWIYDTTKLASGVPSRFSGSGSGTDYTFTISSLQPEDIATYYCQQWNSHPLTFGPGTKVDIK	koff	s⁻¹	0.000489
humanized antibody 22Mono5JO4 (antibody, human IgG1, V domains shown) VH: QVQLVQSGAEVKKPGSSVKVSCRASGYPFTNYWMHWVRQAPGQGLEWIGEINPSNGRTNYNEKFKSRATLTLDKLTSTAYMELSSLTSEDTALYYCARGFAYWGQGTLVTVSS VL: EIVLTQSPGTLSLSPGERATLSCSASSSVSFMHWYQQKPGQAPRRWIYDTTKLASGIPDRFSGSGSGTDYTLTISRLEPEDFAVYYCQQWNSHPLTFGQGTTVEIK	koff	s⁻¹	0.000119
humanized antibody 22Mono4DN4 (antibody, human IgG1, V domains shown) VH: ELVQSGAEVKKPGSSVKVSCKASGYPFTNYWMHWVRQAPGQGLEWIGEINPSNGRTNYNEKFKSRATLTLDKSTSTAYMELSSLRSEDTAVYYCARGFAYWGQGTLVTVSS VL: EIVLTQSPATLSLSPGERATLSCSASSSVSFMHWYQQKPGQAPRRWIYDTTKLASGVPARFSGSGSGTDYTLTISSLEPEDFAVYYCQQWNSHPLTFGQGTKVEIK	koff	s⁻¹	0.00114
humanized antibody 22Mono3L7F (antibody, human IgG1, V domains shown, also called 22monoO3L7) VH: EVTLKESGPVLVKPTETLTLTCTASGYPFTNYWMHWVRQPPGKALEWIGEINPSNGRTNYNEKFKSRATLSLDKSKSQAVLTMTNMDPVDTATYYCARGFAYWGQGTLVTVSS VL: EIVLTQSPATLSLSPGERATLSCSASSSVSFMHWYQQKPGQAPRRWIYDTTKLASGIPARFSGSGSGTDYTLTISSLEPEDFAVYYCQQWNSHPLTFGQGTKLEIK	koff	s⁻¹	0.002
